assay: Pharmacokinetic study in sham and myocardial ischemia model rats after a single oral dose of QSKL (UHPLC-psMS/MS of plasma, non-compartmental analysis); conditions: male, Sprague-Dawley, rat, plasma, po, 8 g/kg, AUC0–∞, sham group (SG) rats, oral administration of QSKL, plasma, mean ± SD, n = 6
Value Kind: AUC(0-inf) (ng·h/mL)

Recorded AUC(0-inf), per entry:
- COC(=O)C1=CO[C@@H](O[C@@H]2O[C@H](CO)[C@@H](O)[C@H](O)[C@H]2O)[C@@H]2[C@H](C)O[C@@H](O)C[C@H]12 [morroniside]: 24.9
- Cc1coc2c1C(=O)C(=O)c1c-2ccc2c1CCCC2(C)C: 4.77
- O=C(/C=C/c1ccc(O)cc1)c1ccc(O)cc1O: 2.07
- COc1ccc(-c2coc3cc(O)ccc3c2=O)cc1: 1.22

A: CC1(C)[C@@H](O[C@H]2O[C@H](C(=O)O)[C@@H](O)[C@H](O)[C@H]2O[C@@H]2O[C@H](C(=O)O)[C@@H](O)[C@H](O)[C@H]2O)CC[C@]2(C)[C@H]3C(=O)C=C4[C@@H]5C[C@@](C)(C(=O)O)CC[C@]5(C)CC[C@@]4(C)[C@]3(C)CC[C@@H]12
B: COc1ccc(-c2coc3cc(O)ccc3c2=O)cc1O
Request: Endpoint returns whichever of A and B has the numerically higher AUC(0-inf). Record your answer as the label of the chosen record.
Result: A

----------
Measured AUC(0-inf) accompanies every entry in the list below.
assay: in vivo; settings: male, Sprague-Dawley, rat, po, 8 g/kg, AUC0–∞, model group (MG, myocardial ischemia) rats, oral administration of QSKL, plasma, mean ± SD, n = 6
Quick reminder: number only, in ng·h/mL, skip the unit.

• COC[C@@]12CC[C@H](OC)[C@]34C(C([C@H](OC)[C@H]13)[C@]1(OC(C)=O)[C@H]3[C@@H](OC(=O)c5ccccc5)[C@](O)(C[C@H]34)[C@@H](OC)[C@@H]1O)N(C)C2 = 0.552
• COCC12CN(C)C3C4C(OC)C1C3(C(OC)CC2O)C1CC2(O)C(OC)C(O)C4(O)C1C2OC(=O)c1ccccc1 (stereo not shown) = 11.1
• COCC12CCC(OC)C34C5CC6(O)C(OC)C(O)C(O)(C5C6OC(=O)c5ccccc5)C(C(OC)C13)C4N(C)C2 (stereo not shown) = 1.66

Request: // lookup AUC(0-inf) for O=C(/C=C/c1ccc(O[C@@H]2O[C@H](CO)[C@@H](O)[C@H](O)[C@H]2O)cc1)c1ccc(O)cc1O
Result: 1.86

----------
test: Pharmacokinetic study in sham and myocardial ischemia model rats after a single oral dose of QSKL (UHPLC-psMS/MS of plasma, non-compartmental analysis); conditions: male, Sprague-Dawley, rat, plasma, po, 8 g/kg, AUC0–∞, model group (MG, myocardial ischemia) rats, oral administration of QSKL, plasma, mean ± SD, n = 6
Value Kind: AUC(0-inf) (ng·h/mL)

Worked examples follow.
- CC1(C)[C@@H](O)CC[C@]2(C)[C@H]3C(=O)C=C4[C@@H]5C[C@@](C)(C(=O)O)CC[C@]5(C)CC[C@@]4(C)[C@]3(C)CC[C@@H]12 [glycyrrhetic acid]: 14500
- CC1(C)[C@@H](O[C@H]2O[C@H](C(=O)O)[C@@H](O)[C@H](O)[C@H]2O[C@@H]2O[C@H](C(=O)O)[C@@H](O)[C@H](O)[C@H]2O)CC[C@]2(C)[C@H]3C(=O)C=C4[C@@H]5C[C@@](C)(C(=O)O)CC[C@]5(C)CC[C@@]4(C)[C@]3(C)CC[C@@H]12 [glycyrrhizic acid]: 170

A: COc1ccc(-c2coc3cc(O)ccc3c2=O)cc1 [formononetin]
B: Cc1coc2c1C(=O)C(=O)c1c-2ccc2c1CCCC2(C)C [tanshinone IIA]
Request: I'm curious whether A or B has the smaller AUC(0-inf) number. Which is it? In your reply, give the label of the chosen option.
Result: A
(A: 1.32 ng·h/mL, B: 7.17 ng·h/mL)
